- System Under Test: Vasoactive intestinal polypeptide receptor 2 (Homo sapiens) (UniProt P41587)
- Sequence (P41587 whole entry): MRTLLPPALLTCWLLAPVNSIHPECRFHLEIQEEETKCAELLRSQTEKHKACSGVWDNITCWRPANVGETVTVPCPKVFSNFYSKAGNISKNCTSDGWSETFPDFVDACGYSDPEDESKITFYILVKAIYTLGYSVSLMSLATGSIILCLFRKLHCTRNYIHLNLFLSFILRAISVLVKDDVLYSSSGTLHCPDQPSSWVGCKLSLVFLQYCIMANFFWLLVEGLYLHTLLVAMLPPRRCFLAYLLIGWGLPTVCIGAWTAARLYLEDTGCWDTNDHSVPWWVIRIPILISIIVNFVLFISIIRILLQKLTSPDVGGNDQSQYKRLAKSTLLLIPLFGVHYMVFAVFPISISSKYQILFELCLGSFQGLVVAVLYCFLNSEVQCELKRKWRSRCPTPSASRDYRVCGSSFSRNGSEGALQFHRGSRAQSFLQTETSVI
- Test Summary: Antagonist activity at recombinant human N-terminal signal peptide/FLAG epitope-tagged VIPR2 expressed in HEK293 cells co-expressing CAMYEL assessed as inhibition of VIP-induced cAMP accumulation at 0.5 uM preincubated for 5 mins with luciferin, coelenterazine H followed by VIP addition measured after 5 mins by BRET assay relative to control
- Assay type: functional, cell-based
Readout Label: inhibition (%)
Entry rule: numbers only, all in %.

| Compound | Unit Name | inhibition |
| --- | --- | --- |
| O=C([C@@H](Cc1ccccc1)C[C@H](O)CNS(=O)(=O)c1ccc([N+](=O)[O-])cc1)N1CCCCC1 | % | 14.2 |
| O=C(N[C@H]1c2ccccc2C[C@H]1O)[C@H](Cc1ccccc1)C[C@H](O)CNS(=O)(=O)c1ccc(C(=O)N2CCOCC2)cc1 | % | -1.4 |
| CO[C@@H]1Cc2ccccc2[C@@H]1NC(=O)[C@H](Cc1ccccc1)C[C@H](O)CN(C)S(=O)(=O)c1ccc([N+](=O)[O-])cc1 | % | 21.1 |
| COc1cc(C(=O)NC[C@@H](O)C[C@@H](Cc2ccccc2)C(=O)N[C@H]2c3ccccc3C[C@H]2O)cc(OC)c1OC | % | 15.6 |
| Cc1ccc(S(=O)(=O)NC[C@@H](O)C[C@@H](Cc2ccccc2)C(=O)N[C@H]2c3ccccc3C[C@H]2O)c(C)c1 | % | 14.1 |

Exercise: Give recorded inhibition. "O=C(NC1CCCCCC1)[C@H](Cc1ccccc1)C[C@H](O)CNS(=O)(=O)c1ccc([N+](=O)[O-])cc1"
Key: 1.7

Exercise: Given "O=C(NN1CCCCC1)[C@H](Cc1ccccc1)C[C@H](O)CNS(=O)(=O)c1ccc([N+](=O)[O-])cc1" , respond with its inhibition.
Key: 6.3

* * *

- System Under Test: Vasoactive intestinal polypeptide receptor 2 (Homo sapiens, UniProt P41587)
- Sequence (P41587 whole entry): as above
- Test Summary: Antagonist activity at human VIPR2 expressed in HEK293 cells assessed as inhibition of VIP-induced cAMP accumulation incubated for 30 mins by HTRF assay
- Type: functional, cell-based
Readout Label: IC50 (µM)
Express your answer in µM, writing the number without its unit.

Exercise: Report IC50 under test system Vasoactive intestinal polypeptide receptor 2 (Homo sapiens, UniProt P41587) for "O=C(N[C@H]1c2ccccc2C[C@H]1O)[C@H](Cc1ccccc1)C[C@H](O)CNS(=O)(=O)c1ccc([N+](=O)[O-])cc1" .
Key: 3.8

* * *

- System Under Test: Vasoactive intestinal polypeptide receptor 2 (Homo sapiens) (UniProt P41587)
- Test Summary: Antagonist activity at recombinant human N-terminal signal peptide/FLAG epitope-tagged VIPR2 expressed in HEK293 cells co-expressing CAMYEL assessed as inhibition of VIP-induced cAMP accumulation at 1 uM preincubated for 5 mins with luciferin, coelenterazine H followed by VIP addition measured after 5 mins by BRET assay relative to control
- Format: functional, cell-based
Binary classification by inhibition, with 20% as an inclusive lower bound for Condition met; all other cases are Condition not met.

The following molecules have reported results that may help.
| Compound Structure String | Label Class |
| --- | --- |
| O=C(NC1Cc2ccccc2C1)[C@H](Cc1ccccc1)C[C@H](O)CNS(=O)(=O)c1ccc([N+](=O)[O-])cc1 | Condition not met |
| O=C(NC[C@@H](O)C[C@@H](Cc1ccccc1)C(=O)N[C@H]1c2ccccc2C[C@H]1O)c1ccccn1 | Condition not met |
| COc1ccc(S(=O)(=O)NC[C@@H](O)C[C@@H](Cc2ccccc2)C(=O)N[C@H]2c3ccccc3C[C@H]2O)cc1 | Condition met |
| Nc1ccc(S(=O)(=O)NC[C@@H](O)C[C@@H](Cc2ccccc2)C(=O)N[C@H]2c3ccccc3C[C@H]2O)cc1 | Condition not met |
| O=C(NC1CCCC1)[C@@H](Cc1ccccc1)C[C@H](O)CNS(=O)(=O)c1ccc([N+](=O)[O-])cc1 | Condition not met |
| O=C(NCc1ccccc1)[C@@H](Cc1ccccc1)C[C@H](O)CNS(=O)(=O)c1ccc([N+](=O)[O-])cc1 | Condition not met |
| CC(C)C(=O)NC[C@@H](O)C[C@@H](Cc1ccccc1)C(=O)N[C@H]1c2ccccc2C[C@H]1O | Condition not met |
| CNc1ccc(S(=O)(=O)NC[C@@H](O)C[C@@H](Cc2ccccc2)C(=O)N[C@H]2c3ccccc3C[C@H]2O)cc1 | Condition not met |
| C#CCNC(=O)[C@@H](Cc1ccccc1)C[C@H](O)CNS(=O)(=O)c1ccc([N+](=O)[O-])cc1 | Condition not met |
| O=C(CCN1C(=O)C=CC1=O)NC[C@@H](O)C[C@@H](Cc1ccccc1)C(=O)N[C@H]1c2ccccc2C[C@H]1O | Condition not met |

Exercise: # bool: inhibition of "CS(=O)(=O)NC[C@@H](O)C[C@@H](Cc1ccccc1)C(=O)N[C@H]1c2ccccc2C[C@H]1O" >= 20%
Key: Condition met

Exercise: Is inhibition for "CNC(=O)[C@H](Cc1ccccc1)C[C@H](O)CNS(=O)(=O)c1ccc([N+](=O)[O-])cc1" at or above 20%?
Key: Condition not met

Exercise: Hi, just wondering whether "O=C(NC[C@@H](O)C[C@@H](Cc1ccccc1)C(=O)N[C@H]1c2ccccc2C[C@H]1O)C(Cl)Cl" shows inhibition of 20% or higher.
Key: Condition not met

Exercise: Threshold query (inhibition >= 20%) on "Cc1ccc([N+](=O)[O-])cc1S(=O)(=O)NC[C@@H](O)C[C@@H](Cc1ccccc1)C(=O)N[C@H]1c2ccccc2C[C@H]1O"
Key: Condition not met
